We begin with a simple list: items and their reported pIC50.
ASSAY_TARGET: HLA-A*68:02
ASSAY_REMARKS: IEDB peptide-MHC binding, purified MHC/competitive/radioactivity; bounds were set here for any values at or beyond the usual limits of such assays
DETAILS: source organism: Mammarenavirus lassaense
Quick note: pIC50 means taking -log10 of the concentration in moles per liter.

Take a look at these entries with their results.
   sequence_text  assay_target  numeric_result
0      LNQAVNNLV   HLA-A*68:02            5.31
1      NCLSLLLSV   HLA-A*68:02            5.73
2      CNYSKYWYL   HLA-A*68:02            5.38

## Input Tell me pIC50 reported for LNCLSLLLSV
## Output 5.39

----------
Reported IC50 values for the following sequences.
ASSAY_TARGET: HLA-A*02:01
ASSAY_REMARKS: IEDB peptide-MHC binding, purified MHC/competitive/radioactivity; bounds were set here for any values at or beyond the usual limits of such assays
DETAILS: source organism: Vaccinia virus WR

// solved cases for IC50 follow
>>> df
   sequence_text  endpoint   result
0     IMAFILGIII      IC50  1110 nM
1      VMKLFTISV      IC50     8 nM
2     AADLTQIFEV      IC50    17 nM

## Input Supply IC50 value. Item: STFIMLEGET
## Output 3480 nM

## Input Input TLVAIFSYI , output reported IC50.
## Output 863 nM

## Input Assign IC50 to the following record: CIDGKWNPVL
## Output 1860 nM

## Input Please list IC50 recorded for the sequence FIKGFLYHT
## Output 1320 nM

## Input Supply reported IC50 belonging to this sequence: TLFLLFLEI
## Output 56 nM

## Input Report IC50 for RLNDFLGLL
## Output 11 nM

## Input Consider the sequence FISIYSRPKI . State its measured IC50.
## Output 135 nM

## Input Name the recorded IC50 of the item ITLTNVVNI in your answer.
## Output 927 nM

## Input Give the value of IC50 reported for the following: IAISSLNKL
## Output 1500 nM

----------
ASSAY_TARGET: HLA-A*68:02
ASSAY_REMARKS: IEDB peptide-MHC binding, cellular MHC/competitive/fluorescence; bounds were set here for any values at or beyond the usual limits of such assays
DETAILS: source organism: Vaccinia virus WR
pIC50: −log10 of the molar value.
# binarize pIC50: threshold 5 inclusive, high side 1 (yes), low side 0 (no)

>>> print(df.to_string())
   sequence_text   class
0      HIGHHYIWI  0 (no)
1      GIIITVGML  0 (no)
2      NTLISSDGA  0 (no)

## Input // inclusive: pIC50 at least 5? input: LQISRVNDL
## Output 0 (no)

## Input Given SANMDWRSLT , state whether its pIC50 is at least 5.
## Output 0 (no)

## Input Has DMLKLFTHDI a recorded pIC50 greater than or equal to 5?
## Output 1 (yes)

## Input State whether the measured pIC50 reaches 5, counting equality as reaching it, for GLFDINVIGL
## Output 1 (yes)

## Input Is pIC50 for FIVYGRSNA at or above 5?
## Output 1 (yes)

## Input Please indicate if the recorded pIC50 for DIKYDNKLL meets or exceeds 5.
## Output 0 (no)

----------
ASSAY_TARGET: HLA-A*02:06
ASSAY_REMARKS: IEDB peptide-MHC binding, cellular MHC/competitive/fluorescence; bounds were set here for any values at or beyond the usual limits of such assays
DETAILS: source organism: Influenza A virus
pIC50 for assorted sequences
// pIC50: -log10(molar conc.)

See these solved cases before continuing.
>>> print(df.to_string())
   sequence_text  numeric_result
0      AAGAAVKGV            4.59
1       ALANTIEV            5.04
2       ATVSADPL            4.67

## Input Give pIC50 for SAFDERRNRYL
## Output 4.46

## Input Item RAMAWTVVNSI : provide pIC50
## Output 5.09

## Input Recall and state the measured pIC50 for TATKRIRMA .
## Output 4.45

## Input Recall and state the measured pIC50 for RMGAVTTEV .
## Output 5.26

## Input Entry GTSGVESAV needs its pIC50 filled in; supply it.
## Output 4.94

## Input Consider the sequence LLLVVQALR . State its measured pIC50.
## Output 5.07

## Input For TVDHMAII , write its pIC50.
## Output 4.38

----------
ASSAY_TARGET: HLA-A*02:03
ASSAY_REMARKS: IEDB peptide-MHC binding, cellular MHC/competitive/fluorescence; bounds were set here for any values at or beyond the usual limits of such assays
DETAILS: source organism: Vaccinia virus WR
ENDPOINT: IC50 (µM)
Give a bare numeral; the unit µM is implied.

# count of solved cases: 5
   sequence_text  numeric_result
0     SVDIETAIRA            7.62
1      RQLTSNVDV            9.76
2      IIDLLLPST            10.3
3      MAFILGIII            9.76
4     VIVVPVIDRL              59

## Input Return the recorded IC50 value; entry: IAGIILLIL
## Output 52.9

----------
Reported pIC50 values follow for various sequences
ASSAY_TARGET: HLA-A*03:01
ASSAY_REMARKS: IEDB peptide-MHC binding, purified MHC/competitive/radioactivity; bounds were set here for any values at or beyond the usual limits of such assays
DETAILS: source organism: Hepatitis B virus
Friendly reminder that pIC50 comes from taking -log10 of the concentration in mol/L.

// solved cases for pIC50 follow
In [3]: df
Out[3]:
   sequence_text  assay_target  numeric_result
0      LLWFHISCL   HLA-A*03:01            5.49
1      CLIFLLVLL   HLA-A*03:01            6.17
2     LLPIFFCLWV   HLA-A*03:01            5.88
3      FLLSLGIHL   HLA-A*03:01            5.60
4      CLRRFIIFL   HLA-A*03:01            5.58
5     LLDYQGMLPV   HLA-A*03:01            7.20
6      FLFILLLCL   HLA-A*03:01            6.18
7      HLYSHPIIL   HLA-A*03:01            6.77

## Input Could you please provide reported pIC50 for FLFILLLCLI ? Thanks!
## Output 6.15

## Input Fill in reported pIC50 for this entry: FIIFLFILLL
## Output 6.86

## Input Could you please provide reported pIC50 for LLVPFVQWFV ? Thanks!
## Output 6.32

----------
ASSAY_TARGET: HLA-A*02:01
ASSAY_REMARKS: IEDB peptide-MHC binding, purified MHC/competitive/radioactivity; bounds were set here for any values at or beyond the usual limits of such assays
DETAILS: source organism: Vaccinia virus WR
Each entry below lists one item and its recorded pIC50 value.
The value called pIC50 is obtained by taking minus log10 of the concentration in mol/L.

# count of solved cases: 10
In [3]: df
Out[3]:
   sequence_text  numeric_result
0     FVADRLISEL            5.73
1      RLLDDLVIV            9.19
2     RIVVALSSLV            7.29
3     SMMNRDKIPI            5.87
4      KLQAAVMET            6.44
5     ALGGSVNIWA            5.93
6     WLKDSAIMVA            6.17
7     PMSRLFMDEI            5.40
8      GVLIAGIIL            6.26
9     CALVSDCAST            6.83

Consider now this further sequence.
## Input Please indicate pIC50 recorded for VLLDYGLHGL
## Output 8.89

----------
ASSAY_TARGET: HLA-A*68:02
ASSAY_REMARKS: IEDB peptide-MHC binding, cellular MHC/competitive/fluorescence; bounds were set here for any values at or beyond the usual limits of such assays
DETAILS: source organism: Hepacivirus hominis
ENDPOINT: pIC50
The quantity pIC50 is defined as the negative base-10 logarithm of the molar concentration.

Consider the worked cases shown below.
>>> print(df.to_string())
   sequence_text  endpoint  numeric_result
0      ALLRMCALV     pIC50            5.19
1      GLIHACMLV     pIC50            4.43
2     RLVPGATYAL     pIC50            4.34

## Input Write down pIC50 measured for item GLLLLCVGV
## Output 4.31

## Input Tell me measured pIC50 for LLMALPHQA please.
## Output 5.01

## Input Read the entry VLWTVFHGA and write its reported pIC50.
## Output 4.46

## Input Give pIC50 for the following sequence: KLLPQLPGV
## Output 4.37

## Input Hello, please tell me recorded pIC50 for this one: LLLSTTEWQV
## Output 4.99
